The reader will find reported clearance values listed item by item below.
# protocol text: Pharmacokinetic studies in male Sprague-Dawley rats
# Assay type: in vivo
# study conditions: male, Sprague-Dawley, plasma; rat, IV (1 mg/kg)

cpd smiles: COc1cc2nccc(Oc3ccc(NC(=O)C4(C(=O)Nc5ccc(F)cc5)CC4)cc3)c2cc1-c1ncco1
clearance [mL/min/kg]: 0.683

cpd smiles: COc1cc2nccc(Oc3ccc(NC(=O)C4(C(=O)Nc5ccc(F)cc5)CC4)cc3)c2cc1C(N)=O
clearance [mL/min/kg]: 1.48

---

# protocol text: Pharmacokinetic studies in male Sprague-Dawley rats
# Type: in vivo
# study conditions: male, Sprague-Dawley, plasma; rat, PO (3.1 mg/kg); read-out: t½
property measured: half-life (h)

cpd smiles: COc1cc2nccc(Oc3ccc(NC(=O)C4(C(=O)Nc5ccc(F)cc5)CC4)cc3)c2cc1-c1ncc[nH]1
readout number: 6.8

---

# tested on: AXL (Homo sapiens (Human), UniProt P30530)
# Sequence (P30530 26-894): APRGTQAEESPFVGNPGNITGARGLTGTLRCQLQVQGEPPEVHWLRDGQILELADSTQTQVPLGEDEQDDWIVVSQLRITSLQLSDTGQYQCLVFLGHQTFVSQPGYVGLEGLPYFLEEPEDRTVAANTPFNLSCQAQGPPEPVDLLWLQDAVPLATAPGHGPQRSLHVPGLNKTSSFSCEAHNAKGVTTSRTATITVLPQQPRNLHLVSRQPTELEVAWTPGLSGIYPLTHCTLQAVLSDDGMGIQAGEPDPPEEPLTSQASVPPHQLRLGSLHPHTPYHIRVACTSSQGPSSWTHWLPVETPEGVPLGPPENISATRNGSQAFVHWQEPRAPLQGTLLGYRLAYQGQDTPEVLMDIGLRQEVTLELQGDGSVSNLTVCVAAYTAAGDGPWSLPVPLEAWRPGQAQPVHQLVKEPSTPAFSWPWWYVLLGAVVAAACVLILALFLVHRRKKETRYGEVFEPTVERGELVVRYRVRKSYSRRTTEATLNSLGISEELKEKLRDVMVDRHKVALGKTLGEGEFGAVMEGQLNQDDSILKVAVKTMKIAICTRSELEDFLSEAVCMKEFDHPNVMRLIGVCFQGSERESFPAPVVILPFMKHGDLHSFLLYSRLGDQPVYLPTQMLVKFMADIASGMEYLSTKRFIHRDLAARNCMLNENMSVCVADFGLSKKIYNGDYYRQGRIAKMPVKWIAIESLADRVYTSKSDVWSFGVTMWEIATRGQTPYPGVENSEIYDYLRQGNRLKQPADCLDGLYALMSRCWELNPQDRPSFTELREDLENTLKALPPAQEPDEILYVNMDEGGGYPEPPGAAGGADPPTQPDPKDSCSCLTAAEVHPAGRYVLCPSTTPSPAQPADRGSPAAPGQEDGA
# protocol text: AXL autophosphorylation ELISA in A-172 cells
# study conditions: cellular, Gas6 stimulated
The reader will find reported IC50 values listed item by item below.
property measured: IC50

molecule: CO/N=C(/C)c1cc2c(Oc3ccc(NC(=O)C4(C(=O)Nc5ccc(F)cc5)CC4)cc3)ccnc2cc1OC
property measured: IC50
result: 100 to 300 nM
--
molecule: CO/N=C(\C)c1ccc2c(Oc3ccc(NC(=O)C4(C(=O)Nc5ccc(F)cc5)CC4)cc3)ccnc2c1
property measured: IC50
result: 100 to 300 nM
--
molecule: CNC(=O)c1cc2c(Oc3ccc(NC(=O)C4(C(=O)Nc5ccc(F)cc5)CC4)cc3Cl)ccnc2cc1OC
property measured: IC50
result: ≤ 10 nM
--
molecule: NC(=O)c1cc2c(Oc3ccc(NC(=O)C4(C(=O)Nc5ccc(F)cc5)CC4)cc3)ccnc2cc1F
property measured: IC50
result: 100 to 300 nM
--
molecule: CCNC(=O)c1ccc2c(Oc3ccc(NC(=O)C4(C(=O)Nc5ccc(F)cc5)CC4)cc3)ccnc2c1
property measured: IC50
result: 10 to 100 nM
--
molecule: CNC(=O)c1cc2c(Oc3ccc(NC(=O)C4(C(=O)Nc5ccc(F)cc5)CC4)cc3)ccnc2cc1OC
property measured: IC50
result: ≤ 10 nM
--
molecule: O=C(NOCCO)c1ccc2c(Oc3ccc(NC(=O)C4(C(=O)Nc5ccc(F)cc5)CC4)cc3)ccnc2c1
property measured: IC50
result: 10 to 100 nM
--
molecule: COC(=O)c1cc2nccc(Oc3ccc(NC(=O)C4(C(=O)Nc5ccc(F)cc5)CC4)cc3)c2cc1OC
property measured: IC50
result: 10 to 100 nM
--
molecule: CNC(=O)c1cc2c(Oc3ccc(NC(=O)C4(C(=O)Nc5ccc(F)cc5OC(C)C)CC4)cc3F)ccnc2cc1OC
property measured: IC50
result: 10 to 100 nM
--
molecule: CNc1cc2nccc(Oc3ccc(NC(=O)C4(C(=O)Nc5ccc(F)cc5)CC4)cc3)c2cc1C(=O)O
property measured: IC50
result: > 300 nM
--
molecule: COc1cc2nccc(Oc3ccc(NC(=O)C4(C(=O)Nc5ccc(F)cc5)CC4)cc3)c2cc1C(=O)NC1COC1
property measured: IC50
result: 10 to 100 nM
--
molecule: COc1cc2nccc(Oc3ccc(NC(=O)C4(C(=O)Nc5ccc(F)cc5)CC4)cc3)c2cc1C(=O)NOCC(O)CO (single isomer, unassigned) [Compound 31]
property measured: IC50
result: 10 to 100 nM
--
molecule: O=C(NOC[C@H](O)CO)c1ccc2c(Oc3ccc(NC(=O)C4(C(=O)Nc5ccc(F)cc5)CC4)cc3)ccnc2c1
property measured: IC50
result: 100 to 300 nM
--
molecule: CC1NC(=O)c2cc3c(Oc4ccc(NC(=O)C5(C(=O)Nc6ccc(F)cc6)CC5)cc4)ccnc3cc2O1 (stereo not shown)
property measured: IC50
result: 10 to 100 nM
--
molecule: CNC(=O)c1cc2c(Oc3ccc(NC(=O)C4(C(=O)Nc5ccc(F)cc5)CC4)cc3F)ccnc2cc1OC
property measured: IC50
result: ≤ 10 nM
--
molecule: CNC(=O)c1cc2c(Oc3ccc(NC(=O)C4(C(=O)Nc5ccc(F)cc5C)CC4)cc3F)ccnc2cc1OC
property measured: IC50
result: ≤ 10 nM
--
molecule: CNC(=O)c1cc2nccc(Oc3cc(Cl)c(NC(=O)C4(C(=O)Nc5ccc(F)cc5)CC4)cc3F)c2cc1C
property measured: IC50
result: 10 to 100 nM
--
molecule: COC(=O)c1cc2c(Oc3ccc(NC(=O)C4(C(=O)Nc5ccc(F)cc5)CC4)cc3)ccnc2cc1OC
property measured: IC50
result: 10 to 100 nM
--
molecule: CNC(=O)c1cc2c(Oc3ccc(NC(=O)C4(C(=O)Nc5ccc(Cl)cc5)CC4)cc3F)ccnc2cc1OC
property measured: IC50
result: 10 to 100 nM
--
molecule: NS(=O)(=O)c1ccc2nccc(Oc3ccc(NC(=O)C4(C(=O)Nc5ccc(F)cc5)CC4)cc3)c2c1
property measured: IC50
result: 100 to 300 nM
--
molecule: COc1cc2nccc(Oc3ccc(NC(=O)C4(C(=O)Nc5ccc(F)cc5)CC4)cc3Cl)c2cc1C(N)=O
property measured: IC50
result: ≤ 10 nM
--
molecule: COc1cc2nccc(Oc3ccc(NC(=O)C4(C(=O)Nc5ccc(F)cc5)CC4)cc3)c2cc1C(=O)NOCCO
property measured: IC50
result: ≤ 10 nM
--
molecule: O=C(NOC[C@@H](O)CO)c1ccc2c(Oc3ccc(NC(=O)C4(C(=O)Nc5ccc(F)cc5)CC4)cc3)ccnc2c1
property measured: IC50
result: 100 to 300 nM
--
molecule: Cc1cc2c(Oc3ccc(NC(=O)C4(C(=O)Nc5ccc(F)cc5)CC4)cc3)ccnc2cc1C(N)=O
property measured: IC50
result: 10 to 100 nM
--
molecule: CO/N=C/c1cc2c(Oc3ccc(NC(=O)C4(C(=O)Nc5ccc(F)cc5)CC4)cc3)ccnc2cc1OC
property measured: IC50
result: 10 to 100 nM
--
molecule: COc1cc2nccc(Oc3ccc(NC(=O)C4(C(=O)Nc5ccc(F)cc5)CC4)cc3)c2cc1-c1cn(C)cn1
property measured: IC50
result: ≤ 10 nM
--
molecule: CNC(=O)c1cc2nccc(Oc3c(F)cc(NC(=O)C4(C(=O)Nc5ccc(F)cc5)CC4)c(F)c3F)c2cc1C
property measured: IC50
result: 10 to 100 nM
--
molecule: COc1cc2nccc(Oc3ccc(NC(=O)C4(C(=O)Nc5ccc(F)cc5)CC4)cc3)c2cc1C(=O)N1CC(O)C1
property measured: IC50
result: 10 to 100 nM

---

The reader will find reported IC50 values listed item by item below.
# tested on: Met (Homo sapiens (Human), UniProt P08581)
# Sequence (P08581 25-1390): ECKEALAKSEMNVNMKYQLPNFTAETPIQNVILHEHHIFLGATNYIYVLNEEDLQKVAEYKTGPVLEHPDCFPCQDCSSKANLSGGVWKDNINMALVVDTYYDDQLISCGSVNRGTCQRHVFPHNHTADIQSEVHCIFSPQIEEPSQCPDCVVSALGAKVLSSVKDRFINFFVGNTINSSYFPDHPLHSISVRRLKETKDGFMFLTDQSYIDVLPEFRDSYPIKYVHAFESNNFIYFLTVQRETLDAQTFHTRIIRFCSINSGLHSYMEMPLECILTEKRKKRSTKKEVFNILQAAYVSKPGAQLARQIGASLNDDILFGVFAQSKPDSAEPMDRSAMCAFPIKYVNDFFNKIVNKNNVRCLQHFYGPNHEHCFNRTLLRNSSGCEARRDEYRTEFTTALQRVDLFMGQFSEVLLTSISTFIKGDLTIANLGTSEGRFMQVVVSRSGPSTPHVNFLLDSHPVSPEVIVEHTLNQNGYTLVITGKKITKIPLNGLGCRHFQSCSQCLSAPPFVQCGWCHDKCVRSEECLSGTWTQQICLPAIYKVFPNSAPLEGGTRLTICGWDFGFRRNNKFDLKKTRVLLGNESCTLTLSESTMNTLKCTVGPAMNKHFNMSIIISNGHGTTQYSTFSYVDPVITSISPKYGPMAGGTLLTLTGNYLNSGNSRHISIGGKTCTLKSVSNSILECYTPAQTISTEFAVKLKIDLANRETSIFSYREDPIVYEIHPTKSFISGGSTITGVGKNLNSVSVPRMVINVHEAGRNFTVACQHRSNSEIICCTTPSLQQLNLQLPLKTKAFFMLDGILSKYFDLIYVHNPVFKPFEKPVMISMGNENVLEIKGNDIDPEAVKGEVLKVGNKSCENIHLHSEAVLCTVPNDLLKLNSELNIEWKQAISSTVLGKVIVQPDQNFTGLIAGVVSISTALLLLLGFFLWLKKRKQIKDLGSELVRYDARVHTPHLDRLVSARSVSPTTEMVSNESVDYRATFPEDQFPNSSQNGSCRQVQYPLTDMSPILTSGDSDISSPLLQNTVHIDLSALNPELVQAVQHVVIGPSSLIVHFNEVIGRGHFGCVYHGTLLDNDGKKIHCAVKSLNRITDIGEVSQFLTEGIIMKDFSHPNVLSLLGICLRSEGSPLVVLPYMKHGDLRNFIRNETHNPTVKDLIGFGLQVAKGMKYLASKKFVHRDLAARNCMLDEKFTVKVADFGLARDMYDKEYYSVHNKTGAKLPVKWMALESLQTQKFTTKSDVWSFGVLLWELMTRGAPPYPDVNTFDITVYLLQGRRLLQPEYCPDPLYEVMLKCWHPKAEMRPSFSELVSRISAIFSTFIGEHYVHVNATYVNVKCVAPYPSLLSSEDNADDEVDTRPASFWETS
# protocol text: Met autophosphorylation ELISA in PC-3 cells
# study conditions: cellular, HGF stimulated, read-out: c-Met IC50
Structures can show the parent of a compound that is named as a salt.
property measured: IC50

molecule: COc1cc2nccc(Oc3ccc(NC(=O)C4(C(=O)Nc5ccc(F)cc5)CC4)cc3)c2cc1C1(O)CNC1
property measured: IC50
result: 100 to 300 nM
--
molecule: COc1cc2nccc(Oc3ccc(NC(=O)C4(C(=O)Nc5ccc(F)cc5)CC4)cc3)c2cc1-c1cnn(C)c1
property measured: IC50
result: 10 to 100 nM
--
molecule: COc1cc2nccc(Oc3ccc(NC(=O)C4(C(=O)Nc5ccc(F)cc5)CC4)cc3)c2cc1C(=O)N1CCC1
property measured: IC50
result: 100 to 300 nM
--
molecule: O=C(NOCCO)c1ccc2c(Oc3ccc(NC(=O)C4(C(=O)Nc5ccc(F)cc5)CC4)cc3)ccnc2c1
property measured: IC50
result: 10 to 100 nM
--
molecule: CNC(=O)c1cc2nccc(Oc3ccc(NC(=O)C4(C(=O)Nc5ccc(F)cc5)CC4)cc3F)c2cc1C
property measured: IC50
result: 10 to 100 nM
--
molecule: CCc1noc(-c2cc3c(Oc4ccc(NC(=O)C5(C(=O)Nc6ccc(F)cc6)CC5)cc4)ccnc3cc2OC)n1 [Compound 283, Hydrochloride]
property measured: IC50
result: 10 to 100 nM
--
molecule: COc1cc2nccc(Oc3ccc(NC(=O)C4(C(=O)Nc5ccc(F)cc5)CC4)cc3F)c2cc1C(=O)O
property measured: IC50
result: > 300 nM

---

# tested on: Met (Homo sapiens (Human), UniProt P08581)
# protocol text: Met autophosphorylation ELISA in PC-3 cells
# study conditions: cellular, HGF stimulated, read-out: c-Met IC50
# Method: PC-3 prostate cancer cells (ATCC #CRL-1435) were seeded at 4×10^4 cells/well onto 24-well plates (Greiner #662165), in DMEM (Thermo Fisher #11995-040) containing 10% FBS (Thermo Fisher #26140-079), 1% MEM NEAA (Thermo Fisher #11140-050), 1% GlutaMax (Thermo Fisher #35050-061), and 1% Penicillin Streptomycin (Thermo Fisher #15140-122). […] IC50 values were calculated by nonlinear regression analysis using a 4-parameter logistic curve fit in ActivityBase XE (IDBS).
pIC50: −log10 of the molar value.
The reader will find reported pIC50 values listed item by item below.

molecule: COc1cc2nccc(Oc3ccc(NC(=O)C4(C(=O)Nc5ccc(F)cc5)CC4)cc3)c2cc1-c1ncco1
pIC50: ≥ 8.00

molecule: CNC(=O)Nc1cc2c(Oc3ccc(NC(=O)C4(C(=O)Nc5ccc(F)cc5)CC4)cc3)ccnc2cc1OC
pIC50: 7.00 to 8.00

molecule: CNC(=O)c1cc2c(Oc3ccc(NC(=O)C4(C(=O)Nc5ccc(F)cc5)CC4)cc3)ccnc2cc1OCC(C)O (centres unmarked)
pIC50: 7.00 to 8.00

molecule: COc1cc2nccc(Oc3ccc(NC(=O)C4(C(=O)Nc5ccc(F)cc5)CC4)cc3)c2cc1C1(O)COC1
pIC50: 7.00 to 8.00

molecule: NC(=O)c1cc2c(Oc3ccc(NC(=O)C4(C(=O)Nc5ccc(F)cc5)CC4)cc3)ccnc2cc1OCCO
pIC50: 7.00 to 8.00

molecule: Nc1cc2nccc(Oc3ccc(NC(=O)C4(C(=O)Nc5ccc(F)cc5)CC4)cc3)c2cc1C(=O)O
pIC50: < 6.52

molecule: COC(=O)Nc1cc2c(Oc3ccc(NC(=O)C4(C(=O)Nc5ccc(F)cc5)CC4)cc3)ccnc2cc1OC
pIC50: 7.00 to 8.00

molecule: NC(=O)c1ccc2c(Oc3ccc(NC(=O)C4(C(=O)Nc5ccc(F)cc5)CC4)cc3)ccnc2c1
pIC50: ≥ 8.00

molecule: COc1cc2nccc(Oc3ccc(NC(=O)C4(C(=O)Nc5ccc(F)cc5)CC4)cc3)c2cc1-c1ccn[nH]1
pIC50: 7.00 to 8.00

molecule: CNC(=O)c1cc2c(Oc3ccc(NC(=O)C4(C(=O)N(C)c5ccc(F)cc5)CC4)cc3F)ccnc2cc1OC
pIC50: < 6.52

molecule: CNC(=O)c1cc2c(Oc3ccc(NC(=O)C4(C(=O)N(C)c5ccc(F)cc5)CC4)cc3)ccnc2cc1OC
pIC50: < 6.52

molecule: CNC(=O)Nc1ccc2c(Oc3ccc(NC(=O)C4(C(=O)Nc5ccc(F)cc5)CC4)cc3)ccnc2c1
pIC50: 7.00 to 8.00

molecule: CO/N=C(\C)c1ccc2c(Oc3ccc(NC(=O)C4(C(=O)Nc5ccc(F)cc5)CC4)cc3)ccnc2c1
pIC50: 6.52 to 7.00

molecule: COc1cc2nccc(Oc3ccc(NC(=O)C4(C(=O)Nc5ccc(F)cc5)CC4)cc3)c2cc1C(=O)NC[C@@H]1CCCN1
pIC50: 7.00 to 8.00
